Test system: recombinant NL-Rluc virus
Assay: Inhibition of HIV replication (NL-RLuc luciferase reporter virus, MT-2 cells)
Assay type: cell-based
Details: Human immunodeficiency virus 1, MT2, 120 h, read-out: Activity
pEC50: −log10 of the molar value.
metric: pEC50

Summary: `Cc1nc2cc(C(=O)NCCc3ccc(F)cc3)nn2c(-c2cc(F)c3c(c2C)CCCO3)c1[C@H](OC(C)(C)C)C(=O)O` , recombinant NL-Rluc virus, pEC50 = > 7.00

Summary: `Cc1nc2cc(C(=O)NCCOC(C)(C)C)nn2c(-c2cc(F)c3c(c2C)CCCO3)c1[C@H](OC(C)(C)C)C(=O)O` , recombinant NL-Rluc virus, pEC50 = 6.00 to 7.00

Summary: `Cc1cc(CNC(=O)c2cc3nc(C)c([C@H](OC(C)(C)C)C(=O)O)c(C4=CCC(C)(C)CC4)n3n2)ccc1F` , recombinant NL-Rluc virus, pEC50 = > 7.00

Summary: `Cc1nc2cc(C(=O)Nc3cc(-c4ccccc4)nn3C)nn2c(-c2cc(F)c3c(c2C)CCCO3)c1[C@H](OC(C)(C)C)C(=O)O` , recombinant NL-Rluc virus, pEC50 = > 7.00

Summary: `Cc1nc2cc(C(=O)NCc3ccccc3Cl)nn2c(-c2cc(F)c3c(c2C)CCCO3)c1[C@H](OC(C)(C)C)C(=O)O` , recombinant NL-Rluc virus, pEC50 = > 7.00

Summary: `Cc1nc2cc(C(=O)NCCC3(O)CCCC3)nn2c(-c2cc(F)c3c(c2C)CCCO3)c1[C@H](OC(C)(C)C)C(=O)O` , recombinant NL-Rluc virus, pEC50 = < 6.00

Summary: `Cc1nc2cc(C(=O)NCCC3CCN(Cc4ccccc4)CC3)nn2c(-c2cc(F)c3c(c2C)CCCO3)c1[C@H](OC(C)(C)C)C(=O)O` , recombinant NL-Rluc virus, pEC50 = 6.00 to 7.00

Summary: `Cc1nc2cc(C(=O)N3CCN(c4ccc(F)cc4)CC3)nn2c(-c2cc(F)c3c(c2C)CCCO3)c1[C@H](OC(C)(C)C)C(=O)O` , recombinant NL-Rluc virus, pEC50 = > 7.00

Summary: `Cc1nc2cc(C(=O)NCCC(C)(C)C)nn2c(-c2cc(F)c3c(c2C)CCCO3)c1[C@H](OC(C)(C)C)C(=O)O` , recombinant NL-Rluc virus, pEC50 = > 7.00

Summary: `Cc1nc2cc(C(=O)NCc3ccccc3C(F)(F)F)nn2c(-c2cc(F)c3c(c2C)CCCO3)c1[C@H](OC(C)(C)C)C(=O)O` , recombinant NL-Rluc virus, pEC50 = > 7.00

Summary: `CNC(=O)c1cc(F)ccc1CNC(=O)c1cc2nc(C)c([C@H](OC(C)(C)C)C(=O)O)c(-c3cc(F)c4c(c3C)CCCO4)n2n1` , recombinant NL-Rluc virus, pEC50 = 6.00 to 7.00

Summary: `Cc1nc2cc(C(=O)N3CCC(c4ccccc4)CC3)nn2c(-c2cc(F)c3c(c2C)CCCO3)c1[C@H](OC(C)(C)C)C(=O)O` , recombinant NL-Rluc virus, pEC50 = > 7.00

Summary: `Cc1nc2cc(C(=O)NCCc3ccc(Cl)cc3)nn2c(-c2cc(F)c3c(c2C)CCCO3)c1[C@H](OC(C)(C)C)C(=O)O` , recombinant NL-Rluc virus, pEC50 = > 7.00
